Every entry's value here was drawn from ChEMBL document CHEMBL3352243.

# Experimental Target: Cannabinoid receptor 2 (Homo sapiens, UniProt P34972)
# Measurement Protocol: Agonist activity at human CB2R expressed in CHO cells assessed as reduction in forskolin-induced cAMP accumulation by beta-galactosidase based complementation immunoassay
# Sequence (P34972 whole entry): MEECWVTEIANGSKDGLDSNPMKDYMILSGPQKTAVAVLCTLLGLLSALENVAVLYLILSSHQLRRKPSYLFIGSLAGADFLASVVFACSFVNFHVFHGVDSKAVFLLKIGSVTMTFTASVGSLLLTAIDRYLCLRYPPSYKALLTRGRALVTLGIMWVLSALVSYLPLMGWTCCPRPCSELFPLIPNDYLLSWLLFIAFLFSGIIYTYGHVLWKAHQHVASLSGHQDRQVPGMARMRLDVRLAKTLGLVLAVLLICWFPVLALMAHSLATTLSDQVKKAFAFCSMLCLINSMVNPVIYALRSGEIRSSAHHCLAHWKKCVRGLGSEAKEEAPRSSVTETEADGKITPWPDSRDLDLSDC
Bucketed by reported EC50, buckets being Low: < 70 nM; Mid: ≥ 70 nM and < 300 nM; High: ≥ 300 nM

{"Compound": "Clc1cccc(CSc2nnc3c(n2)[nH]c2ccccc23)c1", "Assigned Label": "High"}
{"Compound": "Cc1ccccc1-c1cccc2[nH]c3nc(SCc4ccccc4C#N)nnc3c12", "Assigned Label": "High"}
{"Compound": "COc1ccc(C(=O)n2c3ccccc3c3nnc(SCc4ccccc4C#N)nc32)cc1OC", "Assigned Label": "Mid"}
{"Compound": "N#Cc1ccccc1CSc1nnc2c3ccccc3n(C(=O)C3CCCC3)c2n1", "Assigned Label": "Low"}
{"Compound": "c1ccc2c(c1)[nH]c1nc(SCC3CCCCC3)nnc12", "Assigned Label": "High"}
{"Compound": "N#Cc1ccccc1CSc1nnc2c3ccccc3n(CC3CCCCC3)c2n1", "Assigned Label": "Mid"}
{"Compound": "N#Cc1ccccc1CSc1nnc2c(n1)[nH]c1ccc(Br)cc12", "Assigned Label": "High"}
{"Compound": "O=[N+]([O-])c1ccccc1CSc1nnc2c(n1)[nH]c1ccccc12", "Assigned Label": "Low"}
{"Compound": "FC(F)(F)Oc1ccccc1CSc1nnc2c(n1)[nH]c1ccccc12", "Assigned Label": "High"}
{"Compound": "COC(=O)CCCC(=O)n1c2ccccc2c2nnc(SCc3ccccc3C#N)nc21", "Assigned Label": "Low"}
{"Compound": "FC(F)(F)c1ccccc1CSc1nnc2c(n1)[nH]c1ccccc12", "Assigned Label": "High"}
{"Compound": "N#Cc1ccccc1C[S+]([O-])c1nnc2c(n1)[nH]c1ccccc12 (stereo unspecified)", "Assigned Label": "High"}
{"Compound": "N#Cc1ccccc1CSc1nnc2c(n1)[nH]c1cc(Br)ccc12", "Assigned Label": "High"}
{"Compound": "N#Cc1ccccc1CSc1nnc2c3ccccc3n(C(=O)c3ccccc3)c2n1", "Assigned Label": "Mid"}
{"Compound": "N#Cc1ccccc1CSc1nnc2c(n1)[nH]c1cccc(C3CC3)c12", "Assigned Label": "Mid"}
{"Compound": "N#Cc1ccccc1CSc1nnc2c3ccccc3n(C(=O)OCc3ccccc3)c2n1", "Assigned Label": "High"}
{"Compound": "N#Cc1ccccc1CSc1nnc2c3ccccc3n(C(=O)c3ccno3)c2n1", "Assigned Label": "Low"}
{"Compound": "Fc1ccccc1CSc1nnc2c3ccccc3n(Cc3ccccc3)c2n1", "Assigned Label": "High"}
{"Compound": "c1ccc(CSc2nnc3c(n2)[nH]c2ccccc23)cc1", "Assigned Label": "High"}
{"Compound": "O=[N+]([O-])c1ccc(CSc2nnc3c(n2)[nH]c2ccccc23)cc1", "Assigned Label": "High"}
{"Compound": "Clc1ccccc1CSc1nnc2c(n1)[nH]c1ccccc12", "Assigned Label": "High"}
{"Compound": "COC(=O)CCC(=O)n1c2ccccc2c2nnc(SCc3ccccc3C#N)nc21", "Assigned Label": "Low"}
{"Compound": "CC(=O)n1c2ccccc2c2nnc(SCc3ccccc3C#N)nc21", "Assigned Label": "High"}
{"Compound": "N#Cc1ccccc1CSc1nnc2c(n1)[nH]c1ccccc12", "Assigned Label": "Mid"}
{"Compound": "O=C(c1ccccc1)n1c2ccccc2c2nnc(SCc3ccccc3[N+](=O)[O-])nc21", "Assigned Label": "Mid"}
{"Compound": "N#Cc1ccccc1CSc1nnc2c3ccccc3n(C(=O)c3cccc(C(F)(F)F)c3)c2n1", "Assigned Label": "Low"}
{"Compound": "N#Cc1cccc(CSc2nnc3c(n2)[nH]c2ccccc23)c1", "Assigned Label": "High"}
{"Compound": "Fc1ccc(CSc2nnc3c(n2)[nH]c2ccccc23)cc1", "Assigned Label": "High"}
{"Compound": "N#Cc1ccccc1CSc1nnc2c3ccccc3n(C(=O)c3ccc(OC(F)(F)F)cc3)c2n1", "Assigned Label": "Mid"}
{"Compound": "N#Cc1ccccc1CSc1nnc2c(n1)[nH]c1cccc(-c3ccsc3)c12", "Assigned Label": "High"}
{"Compound": "CSc1nnc2c(n1)[nH]c1ccccc12", "Assigned Label": "High"}
{"Compound": "CN(C)c1ccc(C(=O)n2c3ccccc3c3nnc(SCc4ccccc4C#N)nc32)cc1", "Assigned Label": "High"}
{"Compound": "CCOC(=O)c1ccccc1CSc1nnc2c(n1)[nH]c1ccccc12", "Assigned Label": "High"}
{"Compound": "Fc1cccc(F)c1CSc1nnc2c(n1)[nH]c1ccccc12", "Assigned Label": "High"}
{"Compound": "Cc1ccc(S(=O)(=O)n2c3ccccc3c3nnc(SCc4ccccc4C#N)nc32)cc1", "Assigned Label": "High"}
{"Compound": "N#Cc1ccccc1CSc1nnc2c3ccccc3n(C(=O)C3CC3)c2n1", "Assigned Label": "Mid"}
{"Compound": "N#Cc1ccccc1CSc1nnc2c3ccccc3n(S(=O)(=O)c3ccccc3[N+](=O)[O-])c2n1", "Assigned Label": "High"}
{"Compound": "N#Cc1ccccc1CSc1nnc2c(n1)[nH]c1c(Br)cccc12", "Assigned Label": "High"}
{"Compound": "N#Cc1ccccc1CSc1nnc2c3ccccc3n(C(=O)N3CCOCC3)c2n1", "Assigned Label": "Mid"}
{"Compound": "CCCCn1c2ccccc2c2nnc(SCc3ccccc3C#N)nc21", "Assigned Label": "Mid"}
{"Compound": "Cc1ccc(-c2cccc3[nH]c4nc(SCc5ccccc5C#N)nnc4c23)cc1", "Assigned Label": "High"}
{"Compound": "N#Cc1ccccc1CSc1nnc2c3ccccc3n(CC3CC3)c2n1", "Assigned Label": "Mid"}
{"Compound": "N#Cc1ccccc1CSc1nnc2c(n1)[nH]c1cccc(Br)c12", "Assigned Label": "Low"}
{"Compound": "O=C(O)c1ccccc1CSc1nnc2c(n1)[nH]c1ccccc12", "Assigned Label": "High"}
{"Compound": "Fc1ccccc1CSc1nnc2c(n1)[nH]c1ccccc12", "Assigned Label": "High"}
{"Compound": "N#Cc1ccccc1CSc1nnc2c3ccccc3n(Cc3ccccc3[N+](=O)[O-])c2n1", "Assigned Label": "Low"}

====

Below, each of the molecules is paired with its reported Activity value.
# Experimental Target: Cannabinoid receptor 2 (Homo sapiens, UniProt P34972)
# Measurement Protocol: Agonist activity at human CB2R expressed in CHO cells assessed as reduction in forskolin-induced cAMP accumulation at 3 uM by beta-galactosidase based complementation immunoassay
# Assay type: functional, cell-based
# Set-up: reference not given here
Measurement Kind: Activity (%)

{"Molecule": "CCCCCCSC1=C(C#N)C(c2ccc(Cl)cc2)NC(=O)N1 (stereo not given)", "Assay Result": 138}
{"Molecule": "CCCCCCSC1=C(C#N)C(c2cccc([N+](=O)[O-])c2)NC(=O)N1 (stereo not given)", "Assay Result": 39.9}
{"Molecule": "CCC1(C)Cc2c(sc3nc(SCCC(C)C)nc(N)c23)CO1 (stereo not given)", "Assay Result": 98.4}
{"Molecule": "CCCCCCSc1nnc2c(n1)[nH]c1ccccc12", "Assay Result": 76}
{"Molecule": "CCCCSc1nnc2c(n1)[nH]c1ccccc12", "Assay Result": 57.2}
{"Molecule": "CCCCCSc1nnc2c3ccccc3n(C)c2n1", "Assay Result": 110}
{"Molecule": "C=CCn1c(SCCCC)nc2sc3c(c2c1=O)CC(C)(C)OC3", "Assay Result": 36.7}
{"Molecule": "CCCCCSc1nnc2c(n1)[nH]c1ccccc12", "Assay Result": 73.1}
{"Molecule": "CCCCCCSC1=C(C#N)C(c2ccc(F)cc2)NC(=O)N1 (stereo not given)", "Assay Result": 114}
{"Molecule": "CC(C)CCSc1nc(N)c2c3c(sc2n1)COC(C)(C)C3", "Assay Result": 85.3}
{"Molecule": "CCCCCCSC1=C(C#N)C(c2ccccc2Cl)NC(=O)N1 (stereo not given)", "Assay Result": 119}
{"Molecule": "CCCCSc1nnc(-c2ccccc2N)c(O)n1", "Assay Result": 61.6}
{"Molecule": "CCCCCCSC1=C(C#N)C(c2cccc(Cl)c2)NC(=O)N1 (stereo not given)", "Assay Result": 117}
{"Molecule": "CCCCCCCC1C(=O)NC(=S)N(c2ccccc2)C1=O (stereo not given)", "Assay Result": 98.1}
{"Molecule": "CCCCSc1nnc2c(n1)OC(CC)Nc1ccccc1-2 (stereo not given)", "Assay Result": 44.3}

====

# Experimental Target: Cannabinoid receptor 2 (Homo sapiens)
# Measurement Protocol: Agonist activity at human CB2R expressed in CHO cells assessed as reduction in forskolin-induced cAMP accumulation at 1 uM by beta-galactosidase based complementation immunoassay
# Set-up: reference not given here
# Sequence (P34972 whole entry, looked up): as the sequence (P34972 whole entry) above
Measurement Kind: Activity (%)

{"Compound": "CCC1(C)Cc2c(sc3nc(SCCC(C)C)nc(N)c23)CO1 (stereo unspecified)", "Experimental Target": "Cannabinoid receptor 2 (Homo sapiens)", "Measurement Kind": "Activity", "Assay Result": 111}
{"Compound": "CCCCCCSC1=C(C#N)C(c2ccccc2Cl)NC(=O)N1 (stereo unspecified)", "Experimental Target": "Cannabinoid receptor 2 (Homo sapiens)", "Measurement Kind": "Activity", "Assay Result": 98.2}
{"Compound": "C=CCn1c(SCCCC)nc2sc3c(c2c1=O)CC(C)(C)OC3", "Experimental Target": "Cannabinoid receptor 2 (Homo sapiens)", "Measurement Kind": "Activity", "Assay Result": 76.3}
{"Compound": "CC(C)CCSc1nc(N)c2c3c(sc2n1)COC(C)(C)C3", "Experimental Target": "Cannabinoid receptor 2 (Homo sapiens)", "Measurement Kind": "Activity", "Assay Result": 76.7}
{"Compound": "CCCCSc1nnc2c(n1)[nH]c1ccccc12", "Experimental Target": "Cannabinoid receptor 2 (Homo sapiens)", "Measurement Kind": "Activity", "Assay Result": 52.1}
{"Compound": "CCCCSc1nnc2c(n1)OC(CC)Nc1ccccc1-2 (stereo unspecified)", "Experimental Target": "Cannabinoid receptor 2 (Homo sapiens)", "Measurement Kind": "Activity", "Assay Result": 47.8}
